Biological target: IDH2 R140Q (Homo sapiens, UniProt P48735, R140Q)
Sequence (P48735 40-452 R140Q): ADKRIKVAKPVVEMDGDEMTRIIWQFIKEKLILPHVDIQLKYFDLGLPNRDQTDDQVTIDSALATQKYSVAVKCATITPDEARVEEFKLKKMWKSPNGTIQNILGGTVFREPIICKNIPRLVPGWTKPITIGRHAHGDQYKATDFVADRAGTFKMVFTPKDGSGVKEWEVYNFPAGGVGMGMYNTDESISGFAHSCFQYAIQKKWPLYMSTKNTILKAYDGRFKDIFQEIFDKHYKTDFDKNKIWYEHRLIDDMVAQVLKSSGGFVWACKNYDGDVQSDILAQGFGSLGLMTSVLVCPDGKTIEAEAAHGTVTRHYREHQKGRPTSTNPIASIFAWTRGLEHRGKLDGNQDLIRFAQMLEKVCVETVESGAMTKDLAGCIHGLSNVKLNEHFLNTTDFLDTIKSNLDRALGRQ
Assay: IDH2 R140Q enzymatic assay (cofactor depletion, similar format)
Type: biochemical
Conditions: read-out: Enz R140Q
value_type: IC50

Recorded results for 3 compounds are shown here.
CC(C)Nc1nc(Nc2ccc(F)nc2)nc(-c2ccccc2F)n1 [Compound 387]	< 100 nM
CC(C)Nc1nc(Nc2ccccc2)nc(-c2cccc(Cl)c2)n1 [Compound 158]	< 100 nM
CC(C)(C)Nc1nc(Nc2ccccc2)nc(-c2ccccc2)n1 [Compound 112]	< 100 nM

Data request, read-out IC50, for CCOc1cc(Nc2nc(NC(C)C)nc(-c3ccccc3)n2)ccn1 [Compound 200]
< 100 nM

Repeat with CC(F)(F)c1cccc(-c2nc(NCC3CC3)nc(Nc3ccnc(C(C)(C)C#N)c3)n2)n1 [Compound 618]
100 to 1000 nM

Repeat with Fc1ccccc1-c1nc(Nc2cncc(C(F)(F)F)c2)nc(NC2COC2)n1 [Compound 629]
< 100 nM

Repeat with CC(C)Nc1nc(Nc2ccnc(F)c2)nc(-c2nccc(C(F)(F)F)n2)n1 [Compound 537]
100 to 1000 nM
